target: IgE antibodies of the allergic patient serum pool We 6/97; assay: EAST inhibition, serum pool We 6/97
test_readout: IC50 (µM)

[[record]]
binder = "rPhl p 5b deletion mutant DM1 (deletion K50-P132, D49L) (protein) ADAGYAPATPAAAGAAAGKATTEEQKLIEDINVGFKAAVAAAASVPAALAGELQIIDKIDAAFKVAATAAATAPADDKFTVFEAAFNKAIKESTGGAYDTYKCIPSLEAAVKQAYAATVAAAPQVKYAVFEAALTKAITAMSEVQKVSQPATGAATVAAGAATTAAGAASGAATVAAGGYKV"
result_units = "µM"
test_value = 17

[[record]]
binder = "recombinant Phl p 5b (wild type) (protein) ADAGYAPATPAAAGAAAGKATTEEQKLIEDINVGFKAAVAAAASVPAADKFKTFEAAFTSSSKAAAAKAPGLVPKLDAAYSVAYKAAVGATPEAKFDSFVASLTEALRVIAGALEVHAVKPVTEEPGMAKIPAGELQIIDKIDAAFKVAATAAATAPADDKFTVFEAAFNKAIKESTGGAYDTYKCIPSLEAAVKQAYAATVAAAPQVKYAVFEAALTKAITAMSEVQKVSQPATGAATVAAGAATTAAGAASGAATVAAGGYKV"
result_units = "µM"
test_value = 1.4

[[record]]
binder = "rPhl p 5b point mutant PM1 (N32D, D49L, K50A) (protein) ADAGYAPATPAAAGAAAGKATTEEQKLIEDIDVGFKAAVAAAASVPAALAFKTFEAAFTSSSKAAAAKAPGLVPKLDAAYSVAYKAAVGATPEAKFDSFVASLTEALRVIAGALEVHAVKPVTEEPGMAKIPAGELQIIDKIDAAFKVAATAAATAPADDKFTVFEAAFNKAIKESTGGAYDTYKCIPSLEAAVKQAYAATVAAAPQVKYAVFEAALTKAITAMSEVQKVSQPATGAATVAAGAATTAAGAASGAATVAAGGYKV"
result_units = "µM"
test_value = 0.12

[[record]]
binder = "rPhl p 5b deletion mutant DM3 (deletion A154-T177, A220T) (protein) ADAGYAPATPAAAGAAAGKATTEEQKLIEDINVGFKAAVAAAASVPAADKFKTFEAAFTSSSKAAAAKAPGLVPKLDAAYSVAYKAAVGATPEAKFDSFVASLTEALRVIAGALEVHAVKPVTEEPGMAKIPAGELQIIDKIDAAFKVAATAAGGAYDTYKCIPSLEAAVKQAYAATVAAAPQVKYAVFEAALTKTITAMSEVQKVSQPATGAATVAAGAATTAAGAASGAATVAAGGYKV"
result_units = "µM"
test_value = 0.029

